runDescription: TOX21_p53_BLA_p5_viability: Viability Assessment in the Tox21 HCT-116 p53 Agonism Beta-lactamase Assay, Phase 5 (AID 2283600)
Results filed as inconclusive are left out. Active and inactive are the calls of the source. How the source made its calls: active means hit-call score of the fitted dose curve at least 0.9, where 1 is the maximum; inconclusive means response in the unintended direction; inactive means score below 0.9.
Classes to choose from: YES (active), NO (inactive)

INSERT INTO measurements (compound, category) VALUES
  ('CC1(C)CCC(C)(C)c2cc(NC(=O)c3ccc(C(=O)O)cc3)ccc21', 'YES');

Ask | Record lookup: outcome of this test for C[C@@H]1NC(=O)[C@@H](N)CNC(=O)[C@H](C2CCNC(N)=N2)NC(=O)/C(=C/NC(N)=O)NC(=O)[C@H](CNC(=O)C[C@@H](N)CCCN)NC1=O (stereo not given in full) ?
Reply | NO

###

testedTarget: Nuclear respiratory factor 1 (Homo sapiens) (UniProt Q16656)
Sequence (Q16656 whole entry, looked up): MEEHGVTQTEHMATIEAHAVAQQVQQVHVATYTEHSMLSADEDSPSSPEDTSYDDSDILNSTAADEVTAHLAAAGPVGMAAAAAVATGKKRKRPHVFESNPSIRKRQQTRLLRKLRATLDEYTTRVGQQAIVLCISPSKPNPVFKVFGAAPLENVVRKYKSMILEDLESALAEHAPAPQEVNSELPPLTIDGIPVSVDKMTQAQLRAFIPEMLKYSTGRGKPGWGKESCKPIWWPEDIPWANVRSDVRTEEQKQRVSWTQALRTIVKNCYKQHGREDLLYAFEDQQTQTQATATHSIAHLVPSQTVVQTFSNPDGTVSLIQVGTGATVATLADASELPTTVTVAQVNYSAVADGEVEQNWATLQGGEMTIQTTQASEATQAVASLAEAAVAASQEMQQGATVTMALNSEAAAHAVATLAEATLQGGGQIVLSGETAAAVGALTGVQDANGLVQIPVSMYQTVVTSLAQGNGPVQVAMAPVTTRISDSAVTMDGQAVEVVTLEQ
runDescription: ATG_NRF1_CIS: Attagene CIS-FACTORIAL HepG2 Assay for human Nuclear Respiratory Factor 1 (NRF1) Orphan Gene (AID 2282987)
studyConditions: HepG2 NRF1 cis-element reporter, Attagene multiplex; actives raise or lower the signal
Activity calls are given as the source filed them. Rule for the calls: active = hit-call score of the fitted dose curve at least 0.9, where 1 is the maximum; inactive = score below 0.9.
Answer with one of the outcomes given here: y = active, n = inactive

Please review the following examples before continuing.
INSERT INTO assay_data (molecule, testedtarget, category) VALUES
  ('Sc1nc2ccccc2s1', 'Nuclear respiratory factor 1 (Homo sapiens) (UniProt Q16656)', 'n'),
  ('CC1=C(CC=O)C(C)(C)CCC1', 'Nuclear respiratory factor 1 (Homo sapiens) (UniProt Q16656)', 'n'),
  ('CC/C=C\CC1=C(C)CCC1=O', 'Nuclear respiratory factor 1 (Homo sapiens) (UniProt Q16656)', 'n'),
  ('c1ccc2c(c1)Oc1ccccc1S2', 'Nuclear respiratory factor 1 (Homo sapiens) (UniProt Q16656)', 'n'),
  ('[O-][n+]1ccc(Cl)cc1', 'Nuclear respiratory factor 1 (Homo sapiens) (UniProt Q16656)', 'n');

Ask | // param item: CCCC(=O)OC ; yields the recorded call
Reply | n

Ask | Would you mind telling me which call this test gave C=C1CC[C@H]2C[C@@H]1C2(C)C ?
Reply | n

Ask | What outcome does the record of this test show for NC(=O)c1ccc([N+](=O)[O-])cc1Cl ?
Reply | n

Ask | What outcome does the record of this test show for O=C1CCCCCCCCCCCCCC1 ?
Reply | n

Ask | How was C=CN1CCCCCC1=O classified in this test?
Reply | n

Ask | Name the outcome recorded for Clc1ccc(Sc2cc(Cl)c(Cl)cc2Cl)cc1 in the assay.
Reply | n

Ask | Identify the outcome logged in this assay for the molecule shown: CC(C)CC(=O)CC(C)C
Reply | n

###

testedTarget: Cellular tumor antigen p53 (Homo sapiens)
runDescription: TOX21_p53_BLA_p4_ratio: Tox21 HCT-116 p53 Agonism Beta-lactamase Assay, Ratio, Phase 4 (AID 2283601)
Results filed as inconclusive are left out. Calls of active or inactive are those of the source. Rule for the calls: active = hit-call score of the fitted dose curve at least 0.9, where 1 is the maximum; inconclusive = response in the unintended direction; inactive = score below 0.9.
Please reply with one of these outcomes: YES = active, NO = inactive

INSERT INTO assay_data (compound, category) VALUES
  ('N[C@H](C(=O)O)[C@@H]1CC(Cl)=NO1', 'YES'),
  ('O=C(O)c1cc(=O)c2c(OCC(O)COc3cccc4oc(C(=O)O)cc(=O)c34)cccc2o1', 'NO'),
  ('Cc1cccc(Oc2ccccc2)c1', 'NO'),
  ('CC(=O)Nc1ccc(N)cc1', 'NO'),
  ('COc1c(O)cc2c(c1O)[C@@H]1O[C@H](CO)[C@@H](O)[C@H](O)[C@H]1OC2=O', 'NO');

Below: the item to evaluate.
Ask | Recorded test call requested for O=C(O)C1CCCN1 (stereo unspecified)
Reply | NO
